system: C6; assay: Antiproliferative activity against rat C6 cells after 24 hrs by MTT assay; settings: C6, 24 h
I'd be grateful if you could share measured IC50 for these entries.
Answers are plain numbers, in µg/mL.

Completed entries (count: 9):
What the record says about CCN1CCN(NC(=S)SCC(=O)NCc2ccc3c(c2)OCO3)CC1 : IC50 is 157

What the record says about O=C(CSC(=S)NN1CCN(c2ccc([N+](=O)[O-])cc2)CC1)NCc1ccc2c(c1)OCO2 : IC50 is 23.3

What the record says about O=C(CSC(=S)NN1CCN(c2ccccc2)CC1)NCc1ccc2c(c1)OCO2 : IC50 is 163

What the record says about CC1CCN(NC(=S)SCC(=O)NCc2ccc3c(c2)OCO3)CC1 : IC50 is 567

What the record says about O=C(CSC(=S)NN1CCOCC1)NCc1ccc2c(c1)OCO2 : IC50 is 207

What the record says about O=C(CSC(=S)NN1CCSCC1)NCc1ccc2c(c1)OCO2 : IC50 is 220

What the record says about O=C(CSC(=S)NN1CCN(c2ncccn2)CC1)NCc1ccc2c(c1)OCO2 : IC50 is 48.3

What the record says about COc1ccc(N2CCN(NC(=S)SCC(=O)NCc3ccc4c(c3)OCO4)CC2)cc1 : IC50 is 58.3

What the record says about CN1CCN(NC(=S)SCC(=O)NCc2ccc3c(c2)OCO3)CC1 : IC50 is 167

Query compound follows.
What the record says about O=C(CSC(=S)NN1CCCCC1)NCc1ccc2c(c1)OCO2 : IC50 is 633

---

I'd be grateful if you could share measured IC50 for these entries.
system: A549; assay: Antiproliferative activity against human A549 cells after 24 hrs by MTT assay; conditions: A549, 24 h
Numbers only, in µg/mL.

What the record says about O=C(CSC(=S)NN1CCOCC1)NCc1ccc2c(c1)OCO2 : IC50 is 700

Query compound follows.
What the record says about CCN1CCN(NC(=S)SCC(=O)NCc2ccc3c(c2)OCO3)CC1 : IC50 is 850

---

I'd be grateful if you could share measured IC50 for these entries.
tested on: A549; assay: Antiproliferative activity against human A549 cells after 24 hrs by MTT assay; settings: A549, 24 h
One number for each entry, in µg/mL.

Completed entries (count: 2):
What the record says about O=C(CSC(=S)NN1CCN(c2ncccn2)CC1)NCc1ccc2c(c1)OCO2 : IC50 is 833

What the record says about CC1CCN(NC(=S)SCC(=O)NCc2ccc3c(c2)OCO3)CC1 : IC50 is 810

Query molecule follows.
What the record says about O=C(CSC(=S)NN1CCCCC1)NCc1ccc2c(c1)OCO2 : IC50 is 875

---

I'd be grateful if you could share measured IC50 for these entries.
tested on: A549; experiment: Antiproliferative activity against human A549 cells after 24 hrs by MTT assay; settings: A549, 24 h

Completed entries (count: 2):
What the record says about COc1ccc(N2CCN(NC(=S)SCC(=O)NCc3ccc4c(c3)OCO4)CC2)cc1 : IC50 is > 1000 µg/mL

What the record says about O=C(CSC(=S)NN1CCSCC1)NCc1ccc2c(c1)OCO2 : IC50 is > 1000 µg/mL

Next:
What the record says about O=C(CSC(=S)NN1CCN(c2ccccc2)CC1)NCc1ccc2c(c1)OCO2 : IC50 is > 1000 µg/mL
